# assay_system: Peroxisome proliferator-activated receptor gamma (Homo sapiens, UniProt P37231)
# Sequence (P37231 whole entry): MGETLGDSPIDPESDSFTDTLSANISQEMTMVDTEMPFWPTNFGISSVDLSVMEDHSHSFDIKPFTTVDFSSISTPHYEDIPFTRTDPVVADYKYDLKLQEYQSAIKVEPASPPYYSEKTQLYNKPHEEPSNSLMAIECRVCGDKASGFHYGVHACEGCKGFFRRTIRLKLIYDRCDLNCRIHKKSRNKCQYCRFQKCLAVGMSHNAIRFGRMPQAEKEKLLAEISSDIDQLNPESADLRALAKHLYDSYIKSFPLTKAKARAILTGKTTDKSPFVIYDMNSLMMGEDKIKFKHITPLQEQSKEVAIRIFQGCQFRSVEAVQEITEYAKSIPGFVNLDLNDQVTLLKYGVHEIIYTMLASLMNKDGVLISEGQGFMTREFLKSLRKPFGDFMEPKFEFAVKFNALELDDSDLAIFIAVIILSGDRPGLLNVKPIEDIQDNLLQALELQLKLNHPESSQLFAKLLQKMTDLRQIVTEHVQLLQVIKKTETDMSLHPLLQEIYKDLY
# measurement_description: Agonist activity at human PPARgamma transfected in human HEK293 cells incubated for 18 hrs by Renilla/Firefly dual-luciferase reporter assay

[
  {
    "molecule": "CSc1ccc(C(=O)/C=C/c2cc(C)c(OC(C)(C)C(=O)O)c(C)c2)cc1",
    "EC50, µM": 3.96
  }
]

* * *

# measurement_description: Clearance in Sprague-Dawley rat at 3 mg/kg, po measured for 24 hrs by LC-MS/MS analysis
# Assay type: ADME, organism-based
# applied_conditions: in vivo

[
  {
    "molecule": "Cc1cc(/C=C2\\Oc3cc(OCC4CC4)ccc3C2=O)cc(C)c1OC(C)(C)C(=O)O",
    "CL/F / mL/min/kg": 0.351
  }
]
